# system-tested: Cellular tumor antigen p53 (Homo sapiens) (UniProt P04637)
# Sequence (P04637 whole entry, looked up): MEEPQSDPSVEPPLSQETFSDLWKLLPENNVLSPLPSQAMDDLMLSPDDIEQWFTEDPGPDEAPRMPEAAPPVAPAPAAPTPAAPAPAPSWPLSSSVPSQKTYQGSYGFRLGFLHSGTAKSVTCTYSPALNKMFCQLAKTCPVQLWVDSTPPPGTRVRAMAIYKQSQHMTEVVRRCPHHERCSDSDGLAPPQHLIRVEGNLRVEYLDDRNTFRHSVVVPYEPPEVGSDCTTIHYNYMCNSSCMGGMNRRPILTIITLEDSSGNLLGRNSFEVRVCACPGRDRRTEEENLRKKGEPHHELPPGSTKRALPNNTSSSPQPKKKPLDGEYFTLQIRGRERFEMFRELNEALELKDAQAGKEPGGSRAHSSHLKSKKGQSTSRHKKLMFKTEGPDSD
# method-notes: Primary qHTS for small molecule compounds that upregulate eGFP-tagged delta133p53alpha (in N-terminal) cells. (AID 2060322);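 further: cells pre-induced with doxycycline then dosed without doxycycline; 0% = DMSO vehicle and 100% = reference activator; nearly all actives have a fitted effect of over 75% in size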
# condition-summary: NCI-H358 eGFP-delta133p53alpha fluorescence, 24 h; stronger effect = higher value
Inconclusive results are not listed.
Recorded activation by entry
Numbers only; they are read as %.

{"compound": "O=c1ccc2ccccc2o1", "unit": "%", "activation": 9.21}
{"compound": "O=C(C=Cc1cccc(S(=O)(=O)Nc2ccccc2)c1)NO", "unit": "%", "activation": 49}
{"compound": "CC(C)CC(=O)n1cc(C(N)=O)c(=O)cc1C(O)c1ccccc1 (stereo not given)", "unit": "%", "activation": -1.53}

(Q) Fetch value of activation on Cellular tumor antigen p53 (Homo sapiens) (UniProt P04637) for CNc1nc(Nc2cn(C(C)(C)C#N)nc2C)ncc1C(F)(F)F .
(A) -23.2

(Q) Fetch value of activation on Cellular tumor antigen p53 (Homo sapiens) (UniProt P04637) for C=C(C(=O)O)C1CCC2(C)CCCC(C)(O)C2C1 (stereo not given) .
(A) -5.36

(Q) Fetch value of activation on Cellular tumor antigen p53 (Homo sapiens) (UniProt P04637) for CC(C)C(C#N)O[C@@H]1O[C@H](CO[C@@H]2O[C@@H](C)[C@H](O)[C@@H](O)[C@H]2O)[C@@H](O)[C@H](O)[C@H]1O (stereo not given in full) .
(A) -3.82

(Q) Fetch value of activation on Cellular tumor antigen p53 (Homo sapiens) (UniProt P04637) for CC(C)C[C@H](NC(=O)[C@@H]1O[C@H]1C(=O)O)C(=O)NCCCCN=C(N)N .
(A) -8.33

(Q) Fetch value of activation on Cellular tumor antigen p53 (Homo sapiens) (UniProt P04637) for COc1ccc([C@@]2(O)c3c(ccc4c3OC(C)(CCC=C(C)C)C=C4)NC(=O)[C@@H]2OC)cc1 (stereo not given in full) .
(A) -6.87

(Q) Fetch value of activation on Cellular tumor antigen p53 (Homo sapiens) (UniProt P04637) for C=CC1(C)CC(O)C2(CCC3C(C)(C(=O)O)CCCC3(C)C2=O)C1 (stereo not given) .
(A) -2.29

(Q) Fetch value of activation on Cellular tumor antigen p53 (Homo sapiens) (UniProt P04637) for O=C(O)C1CCCNC1 (stereo not given) .
(A) -25.6

====

# method-notes: BET inhibitor-based combinations targeting novel dependencies in MECOM-rearranged (r) AML: MV-4-11 cell line (AID 2202233); further: nearly all actives have a fitted effect of over 45% in size
# condition-summary: MV-4-11 AML viability, CellTiter-Glo luminescence, 48 h; series mostly up to 46 µM
# Protocol: Ecotropic viral insertion site 1 (EVI1) is located on chromosome 3q26.2 as part of the MECOM (MDS and EVI1 complex) locus. […] A collection of 2480 mechanistically annotated dugs (MIPE v5.0) was used to screen four 3q26.2 rearranged AML cell lines and three non-3q26.2 rearranged AML cell lines. […] Cell viability was determined by luminescence based, Cell Titer Glo assay (Promega). […] Luminescence readings were taken using a Viewlux (PerkinElmer) with a 2 s exposure time per plate. […]
Results filed as inconclusive are left out. Calls of active or inactive are those of the source. Calls follow the shape of the dose curve; as a rule, active = well fitted inhibition curve with a large enough effect; inconclusive = small, poorly fitted or top-dose-only effect; inactive = no such curve, though single readings can be large or run the other way.
Reply using exactly one outcome from true (1) = active, false (0) = inactive

Look over these answered cases.
{"compound": "C[C@@H]1CN(c2c(F)c(N)c3c(=O)c(C(=O)O)cn(C4CC4)c3c2F)C[C@H](C)N1", "label-class": "false (0)"}
{"compound": "Oc1ccc(C2=Cc3ccc(O)cc3OC2)cc1", "label-class": "true (1)"}
{"compound": "CCCCCN=C(N)N/N=C/c1c[nH]c2ccc(OC)cc12", "label-class": "true (1)"}
{"compound": "C[C@H](NC(=O)c1sccc1OCc1ccc(Cl)cc1)c1ccccc1", "label-class": "true (1)"}

(Q) Which outcome was entered for the compound Cc1cc2c(cc1C1(c3ccc(C(=O)O)cn3)CC1)C(C)(C)CCC2(C)C in this test?
(A) true (1)

(Q) Which outcome was entered for the compound C=C(C)[C@@H]1CC[C@]2(C(=O)O)CC[C@]3(C)[C@H](CC[C@@H]4[C@@]5(C)CC[C@H](O)C(C)(C)[C@@H]5CC[C@]43C)[C@@H]12 in this test?
(A) false (0)

(Q) Which outcome was entered for the compound OC[C@H]1O[C@@H](O[C@@H]2[C@@H](CO)O[C@](O)(CO)[C@H]2O)[C@H](O)[C@@H](O)[C@H]1O in this test?
(A) false (0)

(Q) Which outcome was entered for the compound COc1ccc(CNC(=O)Nc2ncc([N+](=O)[O-])s2)cc1 in this test?
(A) true (1)

(Q) Which outcome was entered for the compound NC(=O)Nc1sc(-c2ccc(F)cc2)cc1C(N)=O in this test?
(A) true (1)

(Q) Which outcome was entered for the compound S=C(NCc1ccc2c(c1)OCO2)N1CCN(c2ncnc3c2oc2ccccc23)CC1 in this test?
(A) true (1)

(Q) Which outcome was entered for the compound O=C(O)Cc1cccc(OCCCN(Cc2cccc(C(F)(F)F)c2Cl)CC(c2ccccc2)c2ccccc2)c1 in this test?
(A) true (1)

(Q) Which outcome was entered for the compound O=C(CCN1CCN(C(=O)OCc2cc(Cl)cc(Cl)c2)CC1)c1ccc2[nH]c(=O)oc2c1 in this test?
(A) true (1)

====

Recorded viability by entry
# method-notes: BET inhibitor-based combinations targeting novel dependencies in MECOM-rearranged (r) AML: SET-2 cell line (AID 2202231); further: nearly all actives have a fitted effect of over 35% in size;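 on viability: plate controls were DMSO treated cells for no effect and wells without cells for full effect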
# condition-summary: SET-2 AML cells viability, CellTiter-Glo luminescence, 48 h; stronger effect = lower value, concentration not given here
Results filed as inconclusive are left out.
Numbers only; they are read as %.

Take a look at these entries with their results.
{"molecule": "O=C(c1cncc(Br)c1)N1CCC(N2CCCC2)CC1", "reported-value": 113}
{"molecule": "COc1cc2ncnc(Oc3cccc(NC(=O)Nc4cc(C(C)(C)C(F)(F)F)on4)c3)c2cc1OC", "reported-value": 104}
{"molecule": "Cc1ccc(S(=O)(=O)OCC(=O)Nc2ccc(C(=O)O)c(O)c2)cc1", "reported-value": 117}
{"molecule": "CN(C)c1nc(N(C)C)nc(N(C)C)n1", "reported-value": 111}

Turning now to a further record.
(Q) # return recorded viability for entry CC(C)c1ccc2oc3nc(N)c(C(=O)O)cc3c(=O)c2c1
(A) 106

====

# system-tested: Retinaldehyde dehydrogenase 3 (Homo sapiens)
# method-notes: qHTS for Inhibitors of the Aldehyde Dehydrogenase Family (ALDH1A3) Primary screen (AID 2061315);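 further: plate controls were DMSO vehicle for no effect and reference inhibitor for full effect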
# condition-summary: ALDH inhibition qHTS; series mostly up to 56 µM
Results filed as inconclusive are left out. The source made the active and inactive calls. The call rests on the fitted dose curve; in most records, active means well fitted inhibition curve with a large enough effect; inconclusive means small, poorly fitted or top-dose-only effect; inactive means no such curve, though single readings can be large or run the other way.
measured-quantity: activity change, negative = inhibition

Take a look at these entries with their results.
{"molecule": "O=C(Nc1cccc2cccnc12)c1ccc(N2C(=O)[C@@H]3C4C=CC(C4)[C@@H]3C2=O)cc1", "measured-quantity": "activity change, negative = inhibition", "reported-value": "inactive"}
{"molecule": "CC[C@]12C=CCN3CC[C@@]4(c5cc([C@@]6(C(=O)OC)C[C@H]7C[C@@H](C(C)(F)F)CN(Cc8c6[nH]c6ccccc86)C7)c(OC)cc5N(C)[C@H]4[C@@](O)(C(=O)OC)[C@@H]1OC(C)=O)[C@@H]32", "measured-quantity": "activity change, negative = inhibition", "reported-value": "inactive"}
{"molecule": "CN1CCC(Nc2nc(Nc3ccc(Oc4ccccc4)cc3)c3c(=O)[nH]cc(Br)c3n2)CC1", "measured-quantity": "activity change, negative = inhibition", "reported-value": "inactive"}
{"molecule": "CC(=O)Nc1ccc(OC2=NS(=O)(=O)c3ccccc32)cc1", "measured-quantity": "activity change, negative = inhibition", "reported-value": "inactive"}
{"molecule": "O=C(/C=C/c1ccc(O)cc1)O[C@H]1[C@H](OC2CCCCC2O)O[C@H](CO)[C@@H](O)[C@@H]1O (some centres not stated)", "measured-quantity": "activity change, negative = inhibition", "reported-value": "inactive"}
{"molecule": "COc1ccc(C2Nc3ccccc3C(=O)N2Cc2ccccc2)cc1COc1cccc(Cl)c1 (configuration not stated)", "measured-quantity": "activity change, negative = inhibition", "reported-value": "inactive"}

(Q) # return recorded activity change, negative = inhibition for entry Cc1ccc2nc(N)[nH]c(=O)c2c1Sc1ccncc1
(A) inactive

====

# method-notes: BET inhibitor-based combinations targeting novel dependencies in MECOM-rearranged (r) AML: SET-2 cell line (AID 2202231); further: nearly all actives have a fitted effect of over 35% in size; further: potency means the concentration at half of the fitted maximal effect;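 on viability: plate controls were DMSO treated cells for no effect and wells without cells for full effect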
# condition-summary: SET-2 AML cells viability, CellTiter-Glo luminescence, 48 h
Results filed as inconclusive are left out. Activity calls are given as the source filed them. Calls follow the shape of the dose curve; as a rule, active = well fitted inhibition curve with a large enough effect; inconclusive = small, poorly fitted or top-dose-only effect; inactive = no such curve, though single readings can be large or run the other way.
measured-quantity: Potency

Take a look at these entries with their results.
{"compound": "COCCOc1nc(-c2ccc(Cl)c(Cl)c2)n(-c2ccc(NC(=O)CCl)cc2)n1", "reported-value": "1.86 µM (active)"}
{"compound": "COc1cccc2cc(-c3nc(C4CCC(C(=O)O)CC4)n4ncnc(N)c34)[nH]c12 (centres undefined)", "reported-value": "2.95 µM (active)"}
{"compound": "COc1cccc2c1C(=O)c1c(O)c3c(c(O)c1C2=O)C[C@@](O)(C(=O)CO)C[C@@H]3O[C@H]1C[C@H](N)[C@@H](O)[C@H](C)O1", "reported-value": "1.18 µM (active)"}

Turning now to a further record.
(Q) # return recorded Potency for entry Cc1cccc(CC(=O)N2CCc3c2ccc(-c2cn(C)c4ncnc(N)c24)c3F)n1
(A) 5.9 µM (active)
